src = PubChem BioAssay AID2060898

Hi there, I'd appreciate the recorded viability, T/C for every entry that follows.
- Tested on: 616215-338-R-J1-PDC complex spheroid viability;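 also: spheroids exposed to agents for seven days before viability readout; 100% = DMSO vehicle control viability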
- Test name: Anticancer human tumor 616215-338-R-J1-PDC patient-derived colon adenocarcinoma cell line growth inhibition [RAS]
- Conditions: second compound 0.03 µM; first compound 0.0949 µM; hits give low values
Number only, in %; omit the unit.

Request: Field request: viability, T/C | item: CCc1c2c(nc3ccc(O)cc13)-c1cc3c(c(=O)n1C2)COC(=O)[C@]3(O)CC + CCn1c(-c2cccnc2C(C)OC)c2c3cc(ccc31)N1CCOC(CC(NC(=O)C(C(C)C)N(C)C(=O)C3(F)CCN(C(=O)C#CC(C)(C)N(C)C)CC3)C(=O)N3CCCC(N3)C(=O)OCC(C)(C)C2)C1
Result: 30.8

Request: # repeat for CC1(C)CCC(Nc2ncc(C(F)(F)F)c(-c3c[nH]c4c(P(C)(C)=O)c(C#N)ccc34)n2)CN1 (centres undefined) + CCn1c(-c2cc(N3CCN(C)CC3)cnc2C(C)OC)c2c3cc(ccc31)-c1csc(n1)CC(NC(=O)C1CC1C)C(=O)N1CCCC(N1)C(=O)OCC(C)(C)C2
Result: 39

Request: Entry to check: CCc1c2c(nc3ccc(O)cc13)-c1cc3c(c(=O)n1C2)COC(=O)[C@]3(O)CC + CCn1c(-c2cc(N3CCN(C)CC3)cnc2C(C)OC)c2c3cc(ccc31)-c1csc(n1)CC(NC(=O)C1CC1C)C(=O)N1CCCC(N1)C(=O)OCC(C)(C)C2
Result: 15.2

Request: Same question, CC1(C)CCC(Nc2ncc(C(F)(F)F)c(-c3c[nH]c4c(P(C)(C)=O)c(C#N)ccc34)n2)CN1 (centres undefined) + CCn1c(-c2cccnc2C(C)OC)c2c3cc(ccc31)N1CCOC(CC(NC(=O)C(C(C)C)N(C)C(=O)C3(F)CCN(C(=O)C#CC(C)(C)N(C)C)CC3)C(=O)N3CCCC(N3)C(=O)OCC(C)(C)C2)C1 this time
Result: 32.9
